B1: TPR t1 (parent)
chain: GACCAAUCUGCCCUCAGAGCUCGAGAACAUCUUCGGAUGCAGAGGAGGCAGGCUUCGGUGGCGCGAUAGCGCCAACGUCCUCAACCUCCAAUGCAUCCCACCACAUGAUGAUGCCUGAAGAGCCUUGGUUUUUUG

Variants of: B1
experimental-details: polymerase ribozyme fitness, log enrichment relative to wild type (log ratio); higher = more active; in vitro selection for triplet polymerase activity
Recorded polymerase ribozyme fitness (log ratio) values for a group of variants are listed next.
A bare number is all that is needed in reply.

Task: Which polymerase ribozyme fitness (log ratio) value is on record for G35U G42A ?
Output: -6.8

Task: // returns reported polymerase ribozyme fitness (log ratio) for input G17A U38A U59G C115U G117U
Output: -3.04

Task: Form field: reported polymerase ribozyme fitness (log ratio) of C53U C80U
Output: -0.665

Task: Could you tell me which polymerase ribozyme fitness (log ratio) is on file for G51U C82U C85U C94U ?
Output: -2.49

Task: Entry A46G A50C C85U A90G has what polymerase ribozyme fitness (log ratio)?
Output: -1.11

Further cases:
Task: I have this variant here, U14G G61U C89A C99G G113C C115U , and I need its recorded polymerase ribozyme fitness (log ratio).
Output: -6.86

Task: # polymerase ribozyme fitness (log ratio) lookup, item G58C G117A
Output: -0.561

Task: What polymerase ribozyme fitness (log ratio) value was documented for this variant, C49G G60C ?
Output: -1.97

Task: Return reported polymerase ribozyme fitness (log ratio); argument: G17A G36U C56U
Output: -4.9

Task: // polymerase ribozyme fitness (log ratio) lookup, key: G52U A121C
Output: 1.02

Task: Quick one: polymerase ribozyme fitness (log ratio) for A37C G48C ?
Output: -1.64
